These entries and their values trace back to patent US20240207432A1.

- test_target: T1, cynomolgus TROP2-his protein (cynomolgus monkey, UniProt P09758 27-272 (human entry), limits assumed)
- T1 construct: no cleavage site is stated; also called Cynomolgus monkey TROP2-his protein; monkey TROP2
- T1 chain: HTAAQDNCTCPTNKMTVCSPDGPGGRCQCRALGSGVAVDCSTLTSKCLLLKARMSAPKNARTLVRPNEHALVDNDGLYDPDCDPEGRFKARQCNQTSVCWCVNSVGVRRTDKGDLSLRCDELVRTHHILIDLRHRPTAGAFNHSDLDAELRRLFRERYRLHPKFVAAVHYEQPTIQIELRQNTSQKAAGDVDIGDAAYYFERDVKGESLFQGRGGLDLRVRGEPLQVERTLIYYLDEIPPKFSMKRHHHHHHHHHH
- experiment_summary: SPR Biacore T200, mAb captured on anti-mouse IgG CM5 chip, TROP2-his analyte
recorded_endpoint: koff

Would you please look over these solved cases?
mouse antibody A1B12D2B4E7B3 (antibody, V domains shown, Mouse monoclonal IgG purified from hybridoma supernatant) VH: EVQLQQSGPELVKPGASVKMSCKASGFTFTDYYMNWVKQSHGKSLEWIGYIYPNHGGTGYNQKFKDKATLTVDKSSSTAYMELRSLTSDDSAVYYCARENYGYAMDYWGQGTSVTVSS VL: DVVMTQTPLSLPVSLGDQASISCRSSQSLVHGDGNTYLHWFLQKPGQSPKLLIYTVSNRFSGVPDRFSGSGSGTDFTLKINRVEAEDLGIYFCSQTTHVPTFGGGTKLEIK
0.000124 s⁻¹
mouse antibody A1E4F7D4 (antibody, V domains shown, Mouse monoclonal IgG purified from hybridoma supernatant; also called Mouse A1E4F7D4) VH: QVQLQQSGAELAKPGTSVKMSCEASGYSFTTHWIHWMKQRPGQGLEWIGTIFPSNAYAVYNQKFRDRAIMTADRSSTTAYIQLTGLTSEDSAVYYCARASYFDYWGQGTTLTVSS VL: DILLTQSPATLSVSPGERVTFSCRASQNIGTSIHWFQQRTTGSPRLLIKYASESISGIPSRFSGSGSGTDFTLHINSVESEDIAHYYCQHSHSWPFTFGSGTKLEIQ
~4.54e-05 s⁻¹

Turning to the following binder.
Data point: mouse antibody A1E11A12D1 (antibody, V domains shown, Mouse monoclonal IgG purified from hybridoma supernatant) VH: QVQLQQSGAELARPGASVKLSCMASGYTFTTYGISWVRQRTGQGLEWIGQIYPGSDYSYCDEDFKGKATLTADKSSSTAYMQLSSLTSEDSAVYFCARASYFDYWGQGTTLTVSS VL: DILLTQSPAILSVSPGERVSFSCRASQTIGTAIHWYQQRANGSPRLLIKYASESISGIPSRFSGSGSGTDFALSINTVESEDFAYYYCQQSNNWPFTFGGGTKLEIR ; koff = 3.82e-05 s⁻¹
